What Inhibition was measured for each of the following?
Test system: Candida albicans
Conditions: Concentration 32 ug.mL-1; ASSAY_TEST Inhibition of Fungal Growth; detection method Absorption (OD530)
Description: Antifungal activity against Candida albicans ATCC 90028 (CO-ADD:FG_001); MIC in YNB media using NBS plates, by OD630
Potency and affinity values are given separately.
Answers are plain numbers, in %.

The following compounds have reported results that may help.
N#CCSc1nnc2c(=O)n(-c3ccccc3)ccn12 : 2.9
COc1ccc(NC(=O)Cn2nc3c4cc(-c5ccc(C)c(C)c5)nn4ccn3c2=O)c(OC)c1 : 3.53
CCc1ccc(N(Cc2ccccc2)S(=O)(=O)c2cccn3cnnc23)cc1 : 2.34

# map each compound to its Inhibition
1. COc1ccc(-c2cc3c4nn(CC(=O)Nc5ccc6c(c5)OCO6)c(=O)n4ccn3n2)cc1
2. O=S(=O)(c1ccc2nncn2c1)N(Cc1cccc(Cl)c1)c1ccccc1
3. CCOc1ccc(-n2ccn3c(SCC(=O)Nc4ccccc4C(F)(F)F)nnc3c2=O)cc1
4. Cc1cc(C)cc(NC(=O)CSc2nnc3c(=O)n(-c4ccc(Br)cc4)ccn23)c1

1. 15.19
2. -1.59
3. 2.4
4. 6.21

# map each compound to its Inhibition
1. O=C(CSc1nnc2c3cc(-c4ccc(F)cc4)nn3ccn12)NCc1ccc(Cl)cc1
2. CCCNC(=O)Cn1nc2n(Cc3cccs3)c(=O)c3sccc3n2c1=O
3. N#Cc1ccc(NC(=O)CSc2nnc3c4cc(-c5ccc(F)cc5)nn4ccn23)cc1

1. 7.94
2. -0.4
3. 18.84

====

System: Candida albicans
Details: Concentration 32 ug.mL-1; ASSAY_TEST Inhibition of Fungal Growth; detection method Absorption (OD530)
Entries with a potency or affinity are not part of this list.
Readout Kind: Inhibition (%)
Answers are plain numbers, in %.

The following compounds have reported results that may help.
CC(C)CCNC(=O)CSc1nnc2c(=O)n(-c3ccc(F)cc3)ccn12 : 4.94
Cc1ccccc1CN(c1ccc(C(C)C)cc1)S(=O)(=O)c1cccn2c(C)nnc12 : 4.49
COc1ccc(-c2cc3c4nnc(SCC(=O)Nc5ccccc5Cl)n4ccn3n2)cc1 : 2.61
CCCn1c(=O)c2sccc2n2c(CCC(=O)NC(C)C34CC5CC(CC(C5)C3)C4)nnc12 (stereo not given) : 7.2
Cc1ccc(Oc2nccn3c(=O)n(CC(=O)NCc4ccccc4Cl)nc23)cc1 : 1.69
Cc1nnc2ccc(S(=O)(=O)N(Cc3ccccc3F)c3cc(F)cc(F)c3)cn12 : 2.54

# map each compound to its Inhibition
1. O=C(Cn1nc2c3cc(-c4ccc(Cl)cc4)nn3ccn2c1=O)Nc1ccc2c(c1)OCO2
2. COc1ccccc1-n1ccn2c(SCC(=O)Nc3ccc(C)cc3C)nnc2c1=O
3. Cc1cccc(NC(=O)Cn2nc3ccc(-c4ccc(C)c(C)c4)nn3c2=O)c1

1. -0.02
2. 2.45
3. -1.03

Record CCOC(=O)c1ccc(NC(=O)Cn2nc3ccc(-c4ccc(Cl)cc4)nn3c2=O)cc1 . Reported Inhibition: -0.49

====

What Inhibition was measured for each of the following?
Test system: Candida albicans
Conditions: Concentration 32 ug.mL-1; ASSAY_TEST Inhibition of Fungal Growth; detection method Absorption (OD530)
Measured potencies and affinities stand elsewhere.
Numbers only, in %.

The following compounds have reported results that may help.
COc1cccc(N(Cc2ccc(F)cc2)S(=O)(=O)c2ccc3nncn3c2)c1 : 1.11
CSc1ccc(CNC(=O)Cn2nc3c(Oc4ccccc4)nccn3c2=O)cc1 : 0.62
CC(C)c1ccc(NC(=O)Cn2nc3c(N4CCCC4)nccn3c2=O)cc1 : 2.06
Cc1cc(C)c(NC(=O)Cn2nc3c(SCc4ccc(Cl)cc4)nccn3c2=O)c(C)c1 : 25.19
Cc1cc(Br)ccc1NC(=O)Cn1nc2c(SC3CCCCC3)nccn2c1=O : 1.51
COc1ccc(-c2cc3c4nn(CC(=O)NCc5ccc(Cl)cc5)c(=O)n4ccn3n2)cc1 : 0.12
COc1cccc(CN(c2ccc(F)c(F)c2)S(=O)(=O)c2ccc3nncn3c2)c1 : 4.56
Cc1cc(C)cc(NC(=O)Cn2nc3c(Sc4cccc(C)c4)nc4ccccc4n3c2=O)c1 : 1.16

# map each compound to its Inhibition
1. C=Cc1ccc(CN(c2cccc(Cl)c2)S(=O)(=O)c2cccn3c(C)nnc23)cc1
2. COC(=O)c1ccc(NC(=O)Cn2nc3ccc(C(=O)NCc4ccccc4)cn3c2=O)cc1

1: 1.33; 2: 0.61

Reference source: ChEMBL document CHEMBL4513146
